Reported pIC50 values are given for each entry in this list.
Assayed Target: Core-binding factor subunit beta (Homo sapiens, UniProt Q13951)
Method Description: FRET Assay
Condition Details: pH 7.5; 23 °C
For clarity, pIC50 is expressed as the negative log10 of concentration in mol/L.

- Nc1nc(-c2ccc(Cl)cc2Cl)cs1: 4.31
- COc1ccc(-c2csc(N)n2)cc1OC: 4.39
- COc1ccc(-c2csc(N)n2)cc1: 4.73

Reported pIC50 of CCc1sc(N)nc1-c1ccccc1OC : 4.77

====

Assayed Target: Core-binding factor subunit beta (Homo sapiens)
Sequence (Q13951 whole entry): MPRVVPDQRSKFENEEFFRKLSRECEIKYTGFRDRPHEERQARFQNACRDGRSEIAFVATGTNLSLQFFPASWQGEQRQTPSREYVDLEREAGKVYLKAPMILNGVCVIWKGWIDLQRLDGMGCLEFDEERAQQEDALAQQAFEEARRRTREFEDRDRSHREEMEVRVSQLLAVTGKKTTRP
Method Description: FRET Assay
Condition Details: pH 7.5; 23 °C
# IC50 per record follows
Enter your answer as a number in µM; do not include the unit.

Some solved entries appear below for comparison.
- Cc1ccccc1-c1csc(N)n1: 5
- Nc1nc(-c2ccccc2Cl)cs1: 1.1
- Nc1nc(-c2ccc3c(c2)OCO3)cs1: 9

Param item: COc1cccc(-c2csc(N)n2)c1 ; param system: Core-binding factor subunit beta (Homo sapiens); output IC50: 61

====

Listing of entries alongside the reported log10 of IC50.
Assayed Target: Core-binding factor subunit beta (Homo sapiens)
Sequence (Q13951 whole entry): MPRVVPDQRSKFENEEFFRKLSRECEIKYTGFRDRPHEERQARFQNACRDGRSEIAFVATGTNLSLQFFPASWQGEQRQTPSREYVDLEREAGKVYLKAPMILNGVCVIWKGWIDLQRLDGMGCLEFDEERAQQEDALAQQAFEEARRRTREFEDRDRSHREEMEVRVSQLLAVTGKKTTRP
Method Description: FRET Assay
Condition Details: pH 7.5; 23 °C
Form field - Quantity: IC50; Unit: µM; Scale: log10

- Nc1nc(-c2cccc(Cl)c2)cs1 [thiazol-2-amine, 9]: 1.08
- CCc1sc(N)nc1-c1ccc(OC)cc1 [thiazol-2-amine, 17]: 0.51
- CCc1sc(N)nc1-c1cccc(C)c1 [thiazol-2-amine, 19]: 1.82
- CCCc1sc(N)nc1-c1ccc(OC)cc1 [thiazol-2-amine, 18]: 1.37
- Nc1nc(-c2ccc(C(F)(F)F)cc2)cs1 [thiazol-2-amine, 5]: 0.95

Sure, the documented log10 of IC50 for Cc1cccc(-c2csc(N)n2)c1 [thiazol-2-amine, 10] is 2.04

FYI, the data here is from BindingDB's records for doi:10.1016/j.chembiol.2007.09.006.
